system: LOX IMVI melanoma; assay: NCI-60 one-dose screen, 48 h; settings: 10 µM unless noted
This is part of a sample that, as a whole, favours compounds with a hit. Of some 83,000 tested, about 20% had one in any assay. Calls of active or inactive are those of the source. The calls were made as follows: active = growth percent below 10; inactive = the rest.
Answer with one of the outcomes given here: active, inactive

Field: example entries. Status: answers known.
C=C(C)[C@@H]1CC[C@]2(C(=O)NCC(=O)OC)CC[C@]3(C)[C@H](CC[C@@H]4[C@@]5(C)Cc6c([nH]c7ccccc67)C(C)(C)[C@@H]5CC[C@]43C)[C@@H]12 inactive
COc1cc(/C=C2\C(=O)N(Cc3ccc(Cl)cc3)c3ccccc32)cc(OC)c1OC active

Problem: Query: recorded result category for COc1ccc(NC(=O)c2sc3nc(C)c(C(=O)CCc4cccc(OC)c4)cc3c2N)cc1 in this test
Solution: inactive

Problem: Query: recorded result category for COc1cc2c(cc1[N+](=O)[O-])-c1ccc([N+](=O)[O-])cc1/C2=N/NC(N)=S in this test
Solution: inactive
